experiment: Cytotoxicity against rat L6 cells after 72 hrs by alamar blue assay; format: cell-based
Below is a list of entries, each paired with its recorded CC50 at 72 h value.
// units = µg/mL; emit number, no label

Record excerpt, results attached:
>>> measurement("CN(C)c1cc[n+](Cc2ccc(-c3ccc(C[n+]4ccc(N5CCCC5)cc4)cc3)cc2)cc1.[Br-].[Br-]")
5.1
>>> measurement("CN(C)c1cc[n+](Cc2ccc(-c3ccc(C[n+]4ccc(N(C)c5ccc(Cl)cc5)cc4)cc3)cc2)cc1.[Br-].[Br-]")
0.122
>>> measurement("CN(C)c1cc[n+](Cc2ccc(CCc3ccc(C[n+]4ccc(N5CCCC5)cc4)cc3)cc2)cc1.[Br-].[Br-]")
0.123
>>> measurement("CN(C)c1cc[n+](Cc2ccc(CCCCc3ccc(C[n+]4ccc(N5CCCC5)cc4)cc3)cc2)cc1.[Br-].[Br-]")
0.012

Sure, the documented CC50 at 72 h for CN(C)c1cc[n+](Cc2ccc(CCc3ccc(C[n+]4ccc(N(C)c5ccc(Cl)cc5)cc4)cc3)cc2)cc1.[Br-].[Br-] is 0.1

----------
system: Plasmodium falciparum; assay: Antiplasmodial activity against Plasmodium falciparum 3D7 infected in human erythrocytes assessed as parasite growth inhibition after 72 hrs by SYBR Green I dye based fluorescence assay; assay type: functional, organism-based; conditions: 3D7, 72 h
Below is a list of entries, each paired with its recorded pIC50 value.
Note on pIC50: it is the negative log10 of concentration, concentration in mol/L.

Record excerpt, results attached:
>>> measurement("CN(c1ccc(Cl)cc1)c1cc[n+](Cc2ccc(CCCCc3ccc(C[n+]4ccc(N5CCCC5)cc4)cc3)cc2)cc1")
7.43
>>> measurement("CN(c1ccc(Cl)cc1)c1cc[n+](Cc2ccc(CCc3ccc(C[n+]4ccc(N5CCCC5)cc4)cc3)cc2)cc1")
7.51
>>> measurement("Nc1ncnc2c1ncn2Cc1ccc(CCc2ccc(C[n+]3ccc(N4CCCC4)cc3)cc2)cc1")
7.03
>>> measurement("Nc1ncnc2c1ncn2Cc1ccc(CCCCc2ccc(C[n+]3ccc(N4CCCC4)cc3)cc2)cc1")
6.34
>>> measurement("CN(C)c1cc[n+](Cc2ccc(CCCCc3ccc(Cn4cnc(N)c5ncnc4-5)cc3)cc2)cc1")
6.03

Sure, the documented pIC50 for CN(C)c1cc[n+](Cc2ccc(Cn3cnc4c(N)ncnc43)cc2)cc1 is 4.84

Sure, the documented pIC50 for CN(C)c1cc[n+](Cc2ccc(CCCCc3ccc(C[n+]4ccc(N5CCCC5)cc4)cc3)cc2)cc1.[Br-].[Br-] is 8.70

Sure, the documented pIC50 for CN(C)c1cc[n+](Cc2ccc(CCCCc3ccc(Cn4cnc5c(N)ncnc54)cc3)cc2)cc1 is 6.79

Sure, the documented pIC50 for CN(C)c1cc[n+](Cc2ccc(C[n+]3ccc(N(C)c4ccc(Cl)cc4)cc3)cc2)cc1 is 7.18

Sure, the documented pIC50 for c1ccc(CSc2ncnc3c2ncn3Cc2ccc(-c3ccc(C[n+]4ccc(N5CCCC5)cc4)cc3)cc2)cc1 is 6.92

----------
test system: Plasmodium falciparum; assay: Antiplasmodial activity against Plasmodium falciparum 3D7 infected in human erythrocytes assessed as parasite growth inhibition after 72 hrs by SYBR Green I dye based fluorescence assay; type: functional, organism-based; conditions: 3D7, 72 h
readoutType: pIC50
Note on pIC50: it is the negative log10 of concentration, concentration in mol/L.

Sure, the documented pIC50 for CN(c1ccc(Cl)cc1)c1cc[n+](Cc2ccc(C[n+]3ccc(N4CCCC4)cc3)cc2)cc1 is 7.04

Sure, the documented pIC50 for CN(c1ccc(Cl)cc1)c1cc[n+](Cc2ccc(-c3ccc(C[n+]4ccc(N5CCCC5)cc4)cc3)cc2)cc1 is 7.42

Sure, the documented pIC50 for CN(C)c1cc[n+](Cc2ccc(-c3ccc(Cn4cnc5c(SCc6ccccc6)ncnc54)cc3)cc2)cc1 is 5.49

Sure, the documented pIC50 for c1ccc(CSc2ncnc3c2ncn3Cc2ccc(CCc3ccc(C[n+]4ccc(N5CCCC5)cc4)cc3)cc2)cc1 is 6.83

Sure, the documented pIC50 for CN(C)c1cc[n+](Cc2ccc(-c3ccc(C[n+]4ccc(N(C)c5ccc(Cl)cc5)cc4)cc3)cc2)cc1.[Br-].[Br-] is 8.15

Sure, the documented pIC50 for Nc1ncn(Cc2ccc(CCc3ccc(C[n+]4ccc(N5CCCC5)cc4)cc3)cc2)c2ncnc1-2 is 6.68

Sure, the documented pIC50 for CN(C)c1cc[n+](Cc2ccc(-c3ccc(Cn4cnc(N)c5ncnc4-5)cc3)cc2)cc1 is 6.02

Sure, the documented pIC50 for CN(C)c1cc[n+](Cc2ccc(Cn3cnc4c(SCc5ccccc5)ncnc43)cc2)cc1 is 6.91

----------
tested on: Plasmodium falciparum; assay: Antiplasmodial activity against Plasmodium falciparum 3D7 infected in human erythrocytes assessed as parasite growth inhibition after 72 hrs by SYBR Green I dye based fluorescence assay; assay type: functional, organism-based; details: 3D7, 72 h
readoutType: pIC50
Note on pIC50: it is the negative log10 of concentration, concentration in mol/L.

Record excerpt, results attached:
>>> measurement("CN(C)c1cc[n+](Cc2ccc(CCCCc3ccc(C[n+]4ccc(N(C)c5ccc(Cl)cc5)cc4)cc3)cc2)cc1")
7.35
>>> measurement("Nc1ncnc2c1ncn2Cc1ccc(C[n+]2ccc(N3CCCC3)cc2)cc1")
5.19
>>> measurement("CN(C)c1cc[n+](Cc2ccc(CCc3ccc(Cn4cnc5c(N)ncnc54)cc3)cc2)cc1")
6.72

Sure, the documented pIC50 for CN(C)c1cc[n+](Cc2ccc(-c3ccc(Cn4cnc5c(N)ncnc54)cc3)cc2)cc1 is 5.32

Sure, the documented pIC50 for c1ccc(CSc2ncnc3c2ncn3Cc2ccc(CCCCc3ccc(C[n+]4ccc(N5CCCC5)cc4)cc3)cc2)cc1 is 7.27

Sure, the documented pIC50 for CN(C)c1cc[n+](Cc2ccc(-c3ccc(C[n+]4ccc(N5CCCC5)cc4)cc3)cc2)cc1.[Br-].[Br-] is 8.52

Sure, the documented pIC50 for Nc1ncnc2c1ncn2Cc1ccc(-c2ccc(C[n+]3ccc(N4CCCC4)cc3)cc2)cc1 is 6.72

Sure, the documented pIC50 for Nc1ncn(Cc2ccc(CCCCc3ccc(C[n+]4ccc(N5CCCC5)cc4)cc3)cc2)c2ncnc1-2 is 7.08

----------
Below is a list of entries, each paired with its recorded IC50 value.
system: Plasmodium falciparum; assay: Antiplasmodial activity against Plasmodium falciparum 3D7 infected in human erythrocytes assessed as parasite growth inhibition after 72 hrs by SYBR Green I dye based fluorescence assay; format: functional, organism-based; conditions: 3D7, 72 h
Include the unit right after the number.

Record excerpt, results attached:
>>> measurement("c1ccc(CSc2ncnc3c2ncn3Cc2ccc(C[n+]3ccc(N4CCCC4)cc3)cc2)cc1")
"411 nM"
>>> measurement("CN(C)c1cc[n+](Cc2ccc(CCc3ccc(C[n+]4ccc(N(C)c5ccc(Cl)cc5)cc4)cc3)cc2)cc1.[Br-].[Br-]")
"5 nM"
>>> measurement("CN(C)c1cc[n+](Cc2ccc(CCc3ccc(C[n+]4ccc(N5CCCC5)cc4)cc3)cc2)cc1.[Br-].[Br-]")
"3 nM"
>>> measurement("CN(C)c1cc[n+](Cc2ccc(CCCCc3ccc(Cn4cnc5c(SCc6ccccc6)ncnc54)cc3)cc2)cc1")
"500 nM"
>>> measurement("CN(C)c1cc[n+](Cc2ccc(C[n+]3ccc(N4CCCC4)cc3)cc2)cc1")
"94 nM"

Pending compound:
Sure, the documented IC50 for CN(C)c1cc[n+](Cc2ccc(CCc3ccc(Cn4cnc5c(SCc6ccccc6)ncnc54)cc3)cc2)cc1 is 92 nM

src = ChEMBL document CHEMBL3351532
